test: physchem; conditions: 100 mm phosphate buffer, pH 7
The following compounds are shown together with reported half-life values.
Give the number; h is assumed, so skip it.

# half-life of CCCCCCCCOC(=O)[C@@H]1CCC(=O)N1 = 96

So for CCCCOC(=O)[C@@H]1CCC(=O)N1 , the logged half-life turned out to be 80

half-life in this record for CCOC(=O)C(C)OC(=O)C1CCC(=O)N1 (stereo not shown) [Ethyl-2-[pyroglutamoyloxy]-n-propionate, ethyl-2-[pyroglutamoyloxy]-n-propionate] : 9

New cases:
// field: half-life; key: CCCCCCOC(=O)[C@@H]1CCC(=O)N1 ; value = 96

---

test: Stability of esters of pyroglutamic acid in aqueous buffer (half-life of hydrolysis, intact ester by HPLC); conditions: aqueous buffer, pH 7
recordedEndpoint: half-life (h)
Write the number in h without appending the unit.

half-life measured on CCOC(=O)[C@@H]1CCC(=O)N1 = 57.6
